For M14 melanoma, measured GI50 is reported for the entries below.

Q: // lookup GI50 for Cc1n(Cc2ccc3ccccc3c2)cc[n+]1Cc1ccc2ccccc2c1
Ans: 1.12 µM

Q: // lookup GI50 for COc1cc(NC(C)CCCN)c2nccc(C)c2c1OC (configuration not stated)
Ans: 2.97 µM

Q: // lookup GI50 for Nc1nc(Br)nc2c1ncn2C1CC(O)C(CO)O1 (configuration not stated)
Ans: 1.1 µM

Q: // lookup GI50 for Cc1ccc(N(CSc2ccc(Cl)cc2)CSc2ccc(Cl)cc2)cc1
Ans: 1.48 µM

Q: // lookup GI50 for Cc1sc2nc(NCCc3c[nH]c4ccc(Cl)cc34)[nH]c(=O)c2c1C
Ans: 2.4 µM

Next:
Q: // lookup GI50 for Fc1ccc(Nc2cc(-n3nnc4ccccc43)nc3ccccc23)cc1
Ans: > 81.7 µM

Q: // lookup GI50 for O=C(CN(C1CCCCC1)C1CCCCC1)Nc1ccc(S(=O)(=O)c2ccc(NC(=O)CN(C3CCCCC3)C3CCCCC3)cc2)cc1
Ans: 0.373 µM

Q: // lookup GI50 for CCOC(=O)C1=C(C)N(N)C(=S)NC1c1ccc(C)cc1 (configuration not stated)
Ans: 27.5 µM

Q: // lookup GI50 for O=C1/C(=C\c2cccn2Cc2ccccc2)c2ccccc2N1c1c(Cl)cccc1Cl
Ans: > 100 µM

Q: // lookup GI50 for COc1ccc(/C=c2/sc3n(c2=O)C(c2ccc(OC)c(OC)c2)C2=C(N=3)c3cc(F)ccc3OC2)cc1 (configuration not stated)
Ans: 36.9 µM

Q: // lookup GI50 for CC(=O)Oc1ccccc1C(=O)N=C1[Se]CCCN1C(=O)c1ccccc1OC(C)=O
Ans: 1.86 µM

Q: // lookup GI50 for Cc1[nH]n(-c2cccc(Cl)c2)c(=O)c1/C=C1\C=Nc2ccc(Br)cc21
Ans: 14.1 µM

Q: // lookup GI50 for CC(=O)OCC1OC([S-])C(OC(C)=O)C(OC(C)=O)C1OC(C)=O.CC[PH+](CC)CC.CC[PH+](CC)CC.[Au].[Au] (configuration not stated)
Ans: 0.14 µM

Q: // lookup GI50 for Nc1c(C(=O)N/N=C/c2ccc(-c3ccc(Cl)cc3)o2)cnn1-c1ccnc2c(C(F)(F)F)cccc12
Ans: > 100 µM

Q: // lookup GI50 for NC(=O)C(=CNc1nc(-c2ccc(Cl)c(Cl)c2)cs1)C(N)=O
Ans: > 100 µM

Q: // lookup GI50 for O=C(Nc1cccc(Cl)c1Cl)c1cccc(NC2=C(Cl)C(=O)N(Cc3ccccc3)C2=O)c1
Ans: 35.8 µM

Q: // lookup GI50 for CN(C)Cc1c[nH]c2c1C(=O)c1c(c(O)c3ccccc3c1O)C2=O
Ans: 17.2 µM

----------
tested on: SNB-19 CNS; experiment: NCI tumour cell line growth inhibition, 48 h
measured-attribute: TGI

// worked examples, TGI included
Q: // lookup TGI for CC(C)(C)C(=O)/C=C/c1ccc(Oc2ccccc2)cc1
Ans: 68.1 µM

Q: // lookup TGI for COc1ccc2c3c1O[C@H]1C(O)CCC4(O)[C@@H](C2)NCC[C@]314 (stereo not given in full)
Ans: > 100 µM

Q: // lookup TGI for Cc1[nH]n(-c2cccc(Cl)c2)c(=O)c1/C=C1\C=Nc2ccc(Br)cc21
Ans: 25.7 µM

Q: // lookup TGI for CCOC(=O)c1nc2c(Cl)c3ncccc3cc2[nH]c1=O
Ans: > 100 µM

Q: // lookup TGI for O=C(O)c1ccccc1-c1ccccc1C(=O)Nc1ccc2c(c1)Cc1cc(F)ccc1-2
Ans: > 100 µM

Q: // lookup TGI for CN(Nc1cc(=O)[nH]c(=O)[nH]1)c1ccccc1
Ans: > 100 µM

Q: // lookup TGI for C#C[C@]1(O)CC[C@H]2[C@@H]3CC=C4c5sc(Nc6ccccc6)nc5CC[C@]4(C)[C@H]3CC[C@@]21C
Ans: 7.16 µM

Q: // lookup TGI for NC(N)=N/N=C/c1cc(Cl)cc(Cl)c1O
Ans: > 100 µM

Q: // lookup TGI for C[C@H]1[C@H](C)CC[C@]2(C)CC[C@]3(C)C(=C[C@@H](O)[C@@H]4[C@@]5(C)[C@H](O)[C@@H](O)[C@H](O)C(C)(C)[C@@H]5CC[C@]43C)[C@H]12
Ans: > 100 µM

Okay, now this molecule:
Q: // lookup TGI for O=S(O)CCCCSSCc1ccccc1CSSCCCCS(=O)O
Ans: > 100 µM

----------
system: HOP-92 NSCLC; test: NCI tumour cell line growth inhibition, 48 h; in the data active = GI50 below about 0.43 µM; inactive = the rest
Thanks in advance; please answer with one of these: yes = active, no = inactive

Q: Record request — test call for CN(C)c1ccc2nc3ccc(=O)cc-3sc2c1
Ans: no

Q: Record request — test call for CCCCCc1c(C)[nH]c(/C=C2\N=C(c3ccc[nH]3)C=C2CC)c1C
Ans: yes

Q: Record request — test call for Nc1nc(Br)nc2c1ncn2C1CC(O)C(CO)O1 (configuration not stated)
Ans: no

Now take the following compound into account.
Q: Record request — test call for Cc1ccc(Nc2nc(N)c(C(=O)c3ccc(C#N)cc3)s2)cc1
Ans: no

----------
tested on: COLO 205 colon; test: NCI tumour cell line growth inhibition, 48 h
Listing of recorded TGI by entry.

Q: // lookup TGI for CC(C)CC1[C@@H](OCc2ccccc2)COS(=O)N1Cc1ccccc1 (stereo not given in full)
Ans: > 100 µM

Q: // lookup TGI for C=CCN1C[C@H](C)N([C@H](c2ccc(C(=O)N(CC)CCO)cc2)c2cccc(OC)c2)C[C@H]1C
Ans: > 100 µM

Q: // lookup TGI for O=C(O)c1c(-c2nccc3ccccc23)[nH]c(-c2ccccc2)c1S(=O)(=O)O
Ans: > 100 µM

Q: // lookup TGI for OCCCCC#Cc1ccccc1C#Cc1cccc(O)c1
Ans: 35.6 µM

Okay, now this compound:
Q: // lookup TGI for O=C(Nc1ccc(Cl)cc1F)c1cc(Br)ccc1O
Ans: 21.5 µM

----------
test system: M14 melanoma; experiment: NCI tumour cell line growth inhibition, 48 h
Listing of recorded TGI by entry.
// return numeric value only (unit: µM, not printed)

// worked examples, TGI included
Q: // lookup TGI for Cc1cc(C)cc(C(=N)c2ccccc2Cc2cccc3ccccc23)c1
Ans: 40.1

Q: // lookup TGI for COc1ccc(CNc2c3ccccc3nc3ccccc23)cc1OC
Ans: 4.76

Q: // lookup TGI for N#CC(NNC(=O)Cc1ccccc1)c1ccccc1O (stereo not drawn)
Ans: 24.2

Okay, now this compound:
Q: // lookup TGI for c1ccc2c3ccn4cc5c(cc4c-3nc2c1)CCCC5
Ans: 6.41

----------
system: SF-539 CNS; assay: NCI tumour cell line growth inhibition, 48 h; in the data active means GI50 below about 0.43 µM; inactive means the rest
Thanks in advance; please answer with one of these: active, inactive

Examples with answers:
Q: Record request — test call for COc1cc2cn3c4ccc(O)cc4[nH]c(=O)c3c2cc1OC
Ans: active

Q: Record request — test call for CN(C)c1ccc2nc3ccc(=O)cc-3sc2c1
Ans: active

Q: Record request — test call for COc1cc(/C=C2\C(=O)Nc3ccc(F)cc32)cc(OC)c1OC
Ans: inactive

Next:
Q: Record request — test call for O=c1[nH]c2cc(Cl)ccc2n1C1CCN(CCCC(c2ccc(F)cc2)c2ccc(F)cc2)CC1
Ans: inactive

Q: Record request — test call for COc1ccc(C2C(C#N)=C(N)OC3=C2COc2ccc(F)cc23)cc1OC (configuration not stated)
Ans: inactive

Q: Record request — test call for O=C(CN(C1CCCCC1)C1CCCCC1)Nc1ccc(S(=O)(=O)c2ccc(NC(=O)CN(C3CCCCC3)C3CCCCC3)cc2)cc1
Ans: active

Q: Record request — test call for COC(=O)[C@@H](NC(=O)[C@@H](OC)[C@@H]1Cc2cc3cc(OC4CC(OC5CC(O)C(O)C(C)O5)C(O)C(C)O4)c(C)c(O)c3c(O)c2C(=O)[C@H]1OC1CC(OC2CC(OC3CC(C)(O)C(O)C(C)O3)C(O)C(C)O2)C(O)C(C)O1)C(C)C (some centres not stated)
Ans: active

Q: Record request — test call for O=C(Nc1cccc(Cl)c1Cl)c1cccc(NC2=C(Cl)C(=O)N(Cc3ccccc3)C2=O)c1
Ans: inactive

Q: Record request — test call for O=C(O)c1cc(O)c2c(c1)C(C1c3cc(C(=O)O)cc(O)c3C(=O)c3c(OC4OC(CO)C(O)C(O)C4O)cccc31)c1cccc(OC3OC(CO)C(O)C(O)C3O)c1C2=O (configuration not stated)
Ans: inactive

Q: Record request — test call for Cc1[nH]n(-c2cccc(Cl)c2)c(=O)c1/C=C1\C=Nc2ccc(Br)cc21
Ans: inactive

Q: Record request — test call for CC(=O)Oc1ccc(Nc2c3ccccc3nc3ccccc23)cc1
Ans: inactive

----------
test system: CCRF-CEM leukemia; assay: NCI tumour cell line growth inhibition, 48 h
Listing of recorded TGI by entry.
// return numeric value only (unit: µM, not printed)

// worked examples, TGI included
Q: Param readout = TGI; param system = CCRF-CEM leukemia; param query = Cc1c[n+](Cc2ccc3ccccc3c2)cn1Cc1ccc2ccccc2c1 ; response: value
Ans: 5.71

Q: Param readout = TGI; param system = CCRF-CEM leukemia; param query = Cc1ccc(N(CSc2ccc(Cl)cc2)CSc2ccc(Cl)cc2)cc1 ; response: value
Ans: 2.5

Q: Param readout = TGI; param system = CCRF-CEM leukemia; param query = CN(C)C1=Nc2ccccc2C(=S)N2CSCC12 (configuration not stated) ; response: value
Ans: 45.1

Q: Param readout = TGI; param system = CCRF-CEM leukemia; param query = Cc1sc2nc(NCCc3c[nH]c4ccc(Cl)cc34)[nH]c(=O)c2c1C ; response: value
Ans: 14.2

Q: Param readout = TGI; param system = CCRF-CEM leukemia; param query = COC(=O)C1=C(C)NC(C)=C(C(=O)OC)C1c1ccc(/[N+]([O-])=C/c2ccccc2)cc1 ; response: value
Ans: 48

Q: Param readout = TGI; param system = CCRF-CEM leukemia; param query = N#Cc1sc2nc(/C=C3/C=CC=CC3=O)c(O)n2c1N ; response: value
Ans: 74.9

Q: Param readout = TGI; param system = CCRF-CEM leukemia; param query = N#CSc1nc[nH]c1C(N)=O ; response: value
Ans: 14.4

Q: Param readout = TGI; param system = CCRF-CEM leukemia; param query = COc1cccc(CCn2c(N)c(-c3ccccc3)c3ccc([N+](=O)[O-])cc3c2=O)c1 ; response: value
Ans: 43

Next:
Q: Param readout = TGI; param system = CCRF-CEM leukemia; param query = CCOC(=O)C1(C(=O)OCC)CN(CC)CN(c2ccccc2)C1 ; response: value
Ans: 59.1

Q: Param readout = TGI; param system = CCRF-CEM leukemia; param query = OCCCCC#Cc1ccccc1C#Cc1cccc(O)c1 ; response: value
Ans: 48.6

Numbers sourced from PubChem BioAssay (NCI).
